This collection of values is drawn from patent US6660742B2.

MOLT-4: reported CC50 for various molecules.

IN: Answer with CC50 of COc1cc2cc(C(=O)Nc3cc(O)ccc3CCCl)[nH]c2c(OC)c1OC measured for MOLT-4.
OUT: > 100 µM

Next molecule, CC50 to be filled in.
IN: // output CC50; input O=C(Nc1cc(O)ccc1CCCl)c1cc2cc(NC(=O)c3cc4ccccc4o3)ccc2[nH]1 ; system MOLT-4
OUT: > 100 µM

====

Let's look at some compounds and their measured CC50.
system: CCRF-CEM

IN: Fill in CC50 for O=C(Nc1cc(O)ccc1CCCl)c1cc2cc(NC(=O)c3cc4ccccc4o3)ccc2[nH]1 [Compound 1] tested with CCRF-CEM.
OUT: > 100 µM

Then there is this compound:
IN: Report CC50 under test system CCRF-CEM for COc1cc2cc(C(=O)Nc3cc(O)ccc3CCCl)[nH]c2c(OC)c1OC [Compound 3] .
OUT: > 100 µM

====

test system: MCF7
Parameter Measured: CC50 (µM)
// return numeric value only (unit: µM, not printed)

IN: Provide CC50, recorded with MCF7, of O=C(Nc1cc(O)ccc1CCCl)c1cc2cc(NC(=O)c3cc4ccccc4o3)ccc2[nH]1
OUT: 5

====

tested on: TK-10
Parameter Measured: CC50 (µM)
// note: answer is a bare numeric in µM

IN: Return CC50 for the following compound: COc1cc2cc(C(=O)Nc3cc(O)ccc3CCCl)[nH]c2c(OC)c1OC
OUT: 23.5

====

Measured CC50, listed per entry.
tested on: BT-549

IN: Report CC50, nothing else, for this molecule: COc1cc2cc(C(=O)Nc3cc(O)ccc3CCCl)[nH]c2c(OC)c1OC
OUT: > 100 µM

Moving on to another molecule below.
IN: Write down CC50 measured for item O=C(Nc1cc(O)ccc1CCCl)c1cc2cc(NC(=O)c3cc4ccccc4o3)ccc2[nH]1
OUT: > 100 µM

====

tested on: K562 human chronic myeloid leukemia cells; experiment: MTT cytotoxicity on K562 cells; type: cell-based; conditions: read-out: IC50 1 hour exposure; K562 cells; 1 hour exposure
Parameter Measured: IC50

IN: Provide only the value of recorded IC50 for O=C(Nc1cc(O)ccc1CCCl)c1cc2cc(NC(=O)c3cc4ccccc4o3)ccc2[nH]1 [Compound 1]
OUT: 12.1 µM

====

test system: OVCAR-8
Parameter Measured: CC50

IN: Report CC50 for COc1cc2cc(C(=O)Nc3cc(O)ccc3CCCl)[nH]c2c(OC)c1OC [Compound 3]
OUT: > 100 µM

====

system: OVCAR-5
Parameter Measured: CC50 (µM)
Reply numerically in µM, unit not repeated.

IN: Kindly indicate its recorded CC50. Item: O=C(Nc1cc(O)ccc1CCCl)c1cc2cc(NC(=O)c3cc4ccccc4o3)ccc2[nH]1
OUT: 20

====

Record type: CC50 measurement. Applies to: K-562

IN: Give CC50 for this entry on K-562: O=C(Nc1cc(O)ccc1CCCl)c1cc2cc(NC(=O)c3cc4ccccc4o3)ccc2[nH]1
OUT: > 100 µM

---
IN: State, for K-562, measured CC50 of the compound listed here: COc1cc2cc(C(=O)Nc3cc(O)ccc3CCCl)[nH]c2c(OC)c1OC
OUT: > 100 µM

====

system: human colon adenocarcinoma cell line, LS 174T; test: SRB cytotoxicity on LS174T cells; assay type: cell-based; details: read-out: IC50 LS174T 1 hour exposure, 1 hour exposure
Parameter Measured: pIC50
Note: pIC50 values are expressed as the negative base-10 logarithm of concentration in M.

IN: Give the reported pIC50 for this compound. O=C(Nc1cc(O)ccc1CCCl)c1cc2cc(NC(=O)c3cc4ccccc4o3)ccc2[nH]1
OUT: 4.74

====

system: SF-539
Parameter Measured: CC50 (µM)
Please reply with the bare figure in µM and do not write the unit itself.

IN: Fill: CC50 (SF-539) for this molecule O=C(Nc1cc(O)ccc1CCCl)c1cc2cc(NC(=O)c3cc4ccccc4o3)ccc2[nH]1 [Compound 1]
OUT: 9

====

test system: SK-MEL-28
Parameter Measured: CC50 (µM)
Response body: numeric value in µM, unit text excluded.

IN: Using known records, supply CC50 for O=C(Nc1cc(O)ccc1CCCl)c1cc2cc(NC(=O)c3cc4ccccc4o3)ccc2[nH]1 [Compound 1]
OUT: 21.4

====

test system: SF-268
Parameter Measured: CC50

IN: Enter recorded CC50 with SF-268 for COc1cc2cc(C(=O)Nc3cc(O)ccc3CCCl)[nH]c2c(OC)c1OC here.
OUT: > 100 µM

====

system: human colon adenocarcinoma cell line, LS 174T; experiment: SRB cytotoxicity on LS174T cells; type: cell-based; conditions: continuous exposure, read-out: IC50 LS174T Continuous exposure
Parameter Measured: IC50 (µM)
Reply with just the number (in µM).

IN: Recall and state the measured IC50 for O=C(Nc1cc(O)ccc1CCCl)c1cc2cc(NC(=O)c3cc4ccccc4o3)ccc2[nH]1 [Compound 1] .
OUT: 2.27

====

test system: LOX IMVI
Parameter Measured: CC50

IN: Give CC50 for this entry on LOX IMVI: COc1cc2cc(C(=O)Nc3cc(O)ccc3CCCl)[nH]c2c(OC)c1OC [Compound 3]
OUT: > 100 µM

====

Quick record: CC50, HS 578T.

IN: Send back HS 578T CC50 of O=C(Nc1cc(O)ccc1CCCl)c1cc2cc(NC(=O)c3cc4ccccc4o3)ccc2[nH]1 only.
OUT: > 100 µM

We next turn to a different compound, shown below.
IN: Report measured CC50 on HS 578T; entry: COc1cc2cc(C(=O)Nc3cc(O)ccc3CCCl)[nH]c2c(OC)c1OC
OUT: > 100 µM

====

tested on: U251
Parameter Measured: CC50 (µM)
Express your answer in µM, writing the number without its unit.

IN: Return reported CC50. Input molecule: O=C(Nc1cc(O)ccc1CCCl)c1cc2cc(NC(=O)c3cc4ccccc4o3)ccc2[nH]1 [Compound 1]
OUT: 53.9

====

tested on: NCI-H23
Parameter Measured: CC50

IN: Specify CC50 for COc1cc2cc(C(=O)Nc3cc(O)ccc3CCCl)[nH]c2c(OC)c1OC , system NCI-H23.
OUT: > 100 µM

====

tested on: RXF 393
Parameter Measured: CC50 (µM)
Just the number in µM, nothing appended.

IN: For RXF 393, give the measured CC50 of the entry O=C(Nc1cc(O)ccc1CCCl)c1cc2cc(NC(=O)c3cc4ccccc4o3)ccc2[nH]1 [Compound 1]
OUT: 4.77
